B1: library; numbered along this chain (parent)
chain: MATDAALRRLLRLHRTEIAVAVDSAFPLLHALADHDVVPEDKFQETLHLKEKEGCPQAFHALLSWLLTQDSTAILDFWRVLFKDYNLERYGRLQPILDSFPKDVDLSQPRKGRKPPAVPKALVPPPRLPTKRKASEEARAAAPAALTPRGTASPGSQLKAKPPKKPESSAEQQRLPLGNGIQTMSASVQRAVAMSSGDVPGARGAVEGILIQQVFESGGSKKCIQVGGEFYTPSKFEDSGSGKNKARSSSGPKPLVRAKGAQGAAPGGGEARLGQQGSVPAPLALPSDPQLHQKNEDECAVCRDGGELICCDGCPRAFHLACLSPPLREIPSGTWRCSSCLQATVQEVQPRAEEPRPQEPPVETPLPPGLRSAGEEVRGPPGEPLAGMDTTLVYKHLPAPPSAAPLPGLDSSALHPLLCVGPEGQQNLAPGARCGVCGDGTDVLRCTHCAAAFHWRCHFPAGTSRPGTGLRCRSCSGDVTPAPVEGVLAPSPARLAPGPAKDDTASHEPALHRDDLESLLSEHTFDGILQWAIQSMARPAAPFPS

# Variants of: B1
# experiment summary: AIRE transcriptional activation functional score (insulin promoter-GFP; nonsense median 0, synonymous median 1) (normalised score); higher = higher AIRE activity (more reporter activation)
# recorded conditions: with insulin promoter-GFP reporter in HEK293
assay metric: AIRE transcriptional activation functional score

mutation list: R15I
measurement: 0.486

mutation list: G305K
measurement: 1.08

mutation list: A21T
measurement: -0.00846

mutation list: P119K
measurement: 1.36

mutation list: S338M
measurement: 1.32

mutation list: P384K
measurement: 0.962

mutation list: R456S
measurement: 0.726

mutation list: L488A
measurement: 1.27

mutation list: G424K
measurement: 1.04

mutation list: Q290S
measurement: 0.97

mutation list: S195G
measurement: 0.859
